systemTested: 5HT2C receptors (Homo sapiens, UniProt P28335)
protocolDetails: Human 5-HT2C functional high throughput screening assay in CHO-K1 cells (calcium flux)
Format: cell-based
Set-up: expressed in transfected cells; host or cells: CHO-K1 cells
conditionSummary: 5-HT2C agonist activity; CHO-K1 cells; calcium flux; read-out: EC50
pEC50: −log10 of the molar value.
experimentalEndpoint: pEC50

Use these answered entries as a reference point.
compound	systemTested	pEC50
COc1ccc2c(c1)[C@H]1CN(Cc3ccccc3)C[C@@H]1CCC2=O (relative stereo) [Example 261]	5HT2C receptors (Homo sapiens, UniProt P28335)	7.40
CN1C[C@@H]2CCOc3c(-c4cccnc4)cccc3[C@H]2C1 (relative stereo) [Example 370]	5HT2C receptors (Homo sapiens, UniProt P28335)	6.40
CN1C[C@@H]2CNC(=O)c3cc(-c4ccc5c(c4)C(=O)CC5)ccc3[C@H]2C1 [Example 306]	5HT2C receptors (Homo sapiens, UniProt P28335)	8.00
O=C1NC[C@@H]2CNC[C@H]2c2ccc(C3=CCOCC3)cc21 (relative stereo) [Example 241]	5HT2C receptors (Homo sapiens, UniProt P28335)	8.15

[1] CN1C[C@H]2CNC(=O)c3cc(-c4cc(F)c(F)c(F)c4)ccc3[C@@H]2C1 (relative stereo) [Example 322]
[2] C[C@H](O)c1cccc(-c2ccc3c(c2)C(=O)NC[C@H]2CN(C)C[C@H]32)c1 [Example 248]
Exercise: compare 1 and 2 ; which one has the greater pEC50? Your answer should be the label attached to the chosen record.
2

---

systemTested: 5HT2C receptors (Homo sapiens)
Sequence (P28335 33-458): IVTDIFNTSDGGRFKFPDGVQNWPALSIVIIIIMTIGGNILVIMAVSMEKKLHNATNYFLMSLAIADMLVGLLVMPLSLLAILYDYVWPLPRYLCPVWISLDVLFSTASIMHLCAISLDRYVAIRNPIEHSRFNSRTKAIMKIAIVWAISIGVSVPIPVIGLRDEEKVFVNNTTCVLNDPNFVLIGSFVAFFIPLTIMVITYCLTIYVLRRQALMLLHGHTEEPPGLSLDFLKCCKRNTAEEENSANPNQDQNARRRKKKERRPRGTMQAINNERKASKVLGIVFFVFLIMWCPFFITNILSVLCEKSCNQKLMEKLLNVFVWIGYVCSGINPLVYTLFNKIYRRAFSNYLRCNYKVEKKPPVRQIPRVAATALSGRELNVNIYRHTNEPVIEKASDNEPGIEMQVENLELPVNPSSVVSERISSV
protocolDetails: Human 5-HT2C functional assay in 1321N1 cells (intracellular calcium, FLIPR)
Type: cell-based
Design: expressed in transfected cells; host or cells: 1321N1 cells
conditionSummary: 5-HT2c agonist activity, maximum calcium response
pEC50: −log10 of the molar value.
experimentalEndpoint: pEC50

Use these answered entries as a reference point.
compound	systemTested	pEC50
COc1cccc(CN2C[C@H]3CNC(=O)c4ccccc4[C@@H]3C2)c1 (relative stereo)	5HT2C receptors (Homo sapiens)	8.40
O=C1NC[C@@H]2CN(Cc3ccccc3)C[C@@H]2c2ccccc21 (relative stereo)	5HT2C receptors (Homo sapiens)	7.00
O=C1NC[C@@H]2CNC[C@H]2c2ccc(Cl)cc21 (relative stereo)	5HT2C receptors (Homo sapiens)	8.94
CN1C[C@H]2CN(S(=O)(=O)c3ccccc3)Cc3ccccc3[C@@H]2C1 (relative stereo)	5HT2C receptors (Homo sapiens)	7.85
O=C1NC[C@H]2CNC[C@@H]2c2ccccc21	5HT2C receptors (Homo sapiens)	8.52

[a] COc1cc(CN2C[C@H]3CNC(=O)c4ccccc4[C@@H]3C2)cc(OC)c1 (relative stereo)
[b] COc1ccccc1CN1C[C@H]2CNC(=O)c3ccccc3[C@@H]2C1 (relative stereo)
[c] Cc1cccc(CN2C[C@H]3CNC(=O)c4ccccc4[C@@H]3C2)c1C (relative stereo)
[d] O=C1NC[C@@H]2CN(Cc3ccccc3)C[C@H]2c2c(Cl)cccc21 (relative stereo)
Please list the entries, largest pEC50 first. // rank by listing labels in the order requested
a, d, b, c
(a: 8.20, d: 7.85, b: 7.57, c: 6.58)

[I] O=C1NC[C@@H]2CN(Cc3ccccc3)C[C@H]2c2c(F)cccc21 (relative stereo)
[II] O=C1NC[C@@H]2CN(Cc3cccc(Cl)c3)C[C@@H]2c2ccccc21 (relative stereo)
[III] O=C1NC[C@@H]2CN(Cc3cccc(F)c3)C[C@H]2c2ccccc21 (relative stereo)
[IV] O=C1NC[C@@H]2CN(Cc3ccccc3)C[C@@H]2c2c(F)cccc21 (relative stereo)
Please list the entries, largest pEC50 first. // rank by listing labels in the order requested
II, III, I, IV
(II: 8.31, III: 7.92, I: 7.69, IV: 6.75)
